# procedure summary: small-molecule microarray binders of probe aDKK1, primary screen, biochemical, biotinylated probe, 635/667 nm fluorescence (AID 1099);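 also: score merges 667nm spot fluorescence with signal to noise across triplicate slides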
# condition notes: higher = more signal
outcome measure: composite z-score

O=C(C=Cc1ccc2c(c1)OCO2)c1ccc(F)cc1	-0.136
CC(C)=CCCC(C)=CCON=C1C[C@@H](O)[C@@H](O)[C@@H]2[C@@H]3C(=O)N(Cc4ccccc4)C(=O)[C@@H]3CC[C@@H]12	-0.382
O=C1[C@H]2[C@H]3[C@H](O)[C@H](O)CC(=NOCc4ccccc4)[C@@H]3CC[C@H]2C(=O)N1c1ccc(F)cc1F	-0.376
COc1ccc(O[C@H]2C=C[C@@H](c3ccccc3)O[C@@H]2COC(=O)CCC(C)=NOC[C@@H](O)[C@H]2O[C@@H]3OC(C)(C)O[C@@H]3[C@H]2O)cc1	-0.206
CCOC(=O)[C@H](CC(C)C)NC(=O)CCC1CC(OC(=O)NCCc2ccc(F)cc2)CC2(CCCC(COC(=O)NCCc3ccccc3OC)O2)O1 (some centres undefined)	-0.186
COc1ccc(COC(=O)NN=C2C[C@@H](O)[C@@H](O)[C@@H]3[C@@H]4C(=O)N(c5ccc(F)cc5F)C(=O)[C@@H]4CC[C@H]23)cc1	0.939
COC(=O)CC=C[C@@H](C)[C@@H](C=NO[C@@H]1O[C@H](COC(C)=O)[C@@H](OC(C)=O)[C@H](OC(C)=O)[C@H]1OC(C)=O)OC	-0.194
O=C1C=C[C@@H](O)[C@@H]2[C@@H]3C(=O)N(c4ccc(F)cc4F)C(=O)[C@@H]3CC[C@@H]12	-0.241
COc1ccc(O[C@@H]2[C@H](O)CO[C@H]2C=Cc2ccccc2)cc1	-0.274
COC(=O)C=CCCc1coc(C=CCNC(=O)OC)n1	0.161
C[C@H](ON=C1[C@H]2CCn3c(=O)n(-c4ccccc4)c(=O)n3[C@H]2[C@H](O)[C@@H]2O[C@H]12)c1cn([C@H](CO)Cc2ccccc2)nn1	-0.15
COCCNC(=O)OCC1CCCC2(CC(OC(=O)NCc3ccc4c(c3)OCO4)CC(CCC(=O)N[C@@H](C)C(=O)OC)O2)O1 (some centres undefined)	-0.205
CC(CCN1CCCCc2nc(C)c(C)cc21)=NO[C@@H](C)c1cn([C@H](CO)Cc2ccccc2)nn1	-0.217
CO[C@@H]1COC(=O)[C@H](CCSC)NC(=O)CC=C[C@@H](C)COC(=O)CCC[C@H]1C	-0.374
CCOC(=O)NN=C1C[C@@H](O)[C@@H](O)[C@@H]2[C@@H]3C(=O)N(c4cccc(Oc5ccccc5)c4)C(=O)[C@@H]3CC[C@@H]12	-0.27
COc1ccc(COC(=O)NN=C2C[C@@H](O)[C@@H](O)[C@@H]3[C@@H]4C(=O)N(Cc5ccccc5)C(=O)[C@@H]4CC[C@H]23)cc1	0.743
COC(=O)[C@@H]1CC[C@H](C)[C@@H](c2ccc(C)cc2)N1C(=O)c1ccc(C=NO[C@@H](C)c2cn([C@H](CO)Cc3ccccc3)nn2)cc1	-0.0212
C=CC[C@@H]1C=C[C@H](ON=C(C)CCC(=O)OC[C@H]2O[C@H](c3ccccc3)C=C[C@@H]2Oc2ccc(OC)cc2)[C@@H](CO)O1	-0.347
CO[C@H]1COC(=O)CCC[C@@H](C)[C@H](OC)COC(=O)[C@@H](C)NC(=O)CC=C[C@@H]1C	-0.502

----------
# Tested on: wheat germ agglutinin (Triticum aestivum), Alexa647-labelled
# procedure summary: wheat germ agglutinin binders on compound microarrays, profiling panel, artefact control for SMM control-protein annotation, biochemical, small-molecule microarray, 635/667 nm fluorescence (AID 1140);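 also: score merges 667 nm feature emission with signal to noise over triplicate slides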
# condition notes: WGA-A647 binding, 635 nm fluorescence, higher = more signal
outcome measure: composite z-score

C=CC[C@@H]1C=C[C@H](ON=C2[C@H]3CCn4c(=O)n(-c5ccccc5)c(=O)n4[C@H]3[C@H](O)[C@@H]3O[C@H]23)[C@@H](CO)O1	-0.0168
CON=Cc1ccc(C(=O)N2[C@H](c3ccc(C)cc3)[C@@H](C)CC[C@H]2C(=O)OC)cc1	0.112
CCCCC#C[C@@H]1C=C[C@H](Oc2cc(OC)c(OC)c(OC)c2)[C@@H](COC(=O)OCC)O1	-0.0925
CCN1C(=O)[C@H]2[C@H]3[C@H](O)[C@H](O)CC(=NOCC(C)C)[C@@H]3CC[C@H]2C1=O	-0.0157
O=c1n(Cc2cc3c(cc2Cl)OCO3)c(=O)n2n1CC[C@@H]1C(=NOC[C@@H](O)COCc3ccco3)[C@H]3O[C@H]3[C@@H](O)[C@@H]12	0.004
COc1ccc(O[C@H]2C=C[C@@H](c3ccccc3)O[C@@H]2CON=C(C)CCN2CCc3nc(-c4ccccc4)c(-c4ccccc4)cc3C2)cc1	0.0216
COc1ccc(O[C@H]2C=C[C@@H](c3ccccc3)O[C@@H]2COC(=O)CCC(C)=NOC(C)CN2CCCc3nc(C)c(C)cc32)cc1 (stereo partly drawn)	-0.028
O=c1n(-c2ccccc2)c(=O)n2n1CC[C@@H]1C(=NOCc3ccccc3)[C@H]3O[C@H]3[C@@H](O)[C@@H]12	0.0398
COC(=O)[C@H]1O[C@@H](c2c(OC)c(OC)c(C)c(OC)c2OC)[C@H](C)[C@@H](O)[C@H]1C	0.526
CCOC(=O)[C@H](CC(C)C)NC(=O)CCC1CC(OC(=O)NCc2cccc3ccccc23)CC2(CCCC(COC(=O)NCCC(C)C)O2)O1 (stereo partly drawn)	0.0877
C=CC[C@@H]1C=C[C@H](ON=C(C)CCC(=O)OC[C@H]2O[C@H](c3ccccc3)C=C[C@@H]2Oc2ccc(OC)cc2)[C@@H](CO)O1	0.104
C[C@H]1Cc2c(COc3ccccc3)nc3c(c2CO1)CN(CCOc1ccccc1)CC3	0.346
COC(=O)[C@@H]1CC[C@H](C)[C@@H](c2ccc(C)cc2)N1C(=O)c1ccc(C=NO[C@H](C)c2cn([C@@H]3COC[C@H]3O)nn2)cc1	0.145
CC(C)=CCCC(C)=CCON=C1C[C@@H](O)[C@@H](O)[C@@H]2[C@@H]3C(=O)N(C(C)(C)C)C(=O)[C@@H]3CC[C@@H]12	0.269
CC(=O)OC[C@H]1O[C@H](C#Cc2ccccc2)C=C[C@@H]1OC(C)=O	-0.361
CO[C@H]1COC(=O)CC=C[C@H](C)[C@@H](OC)COC(=O)[C@@H](C)NC(=O)CC=C[C@@H]1C	0.0216
CCOC(=O)NN=C1C[C@@H](O)[C@@H](O)[C@@H]2[C@@H]3C(=O)N(c4cccc(Oc5ccccc5)c4)C(=O)[C@@H]3CC[C@@H]12	0.327
CCOC(=O)NN=C1C[C@@H](O)[C@@H](O)[C@@H]2[C@@H]3C(=O)N(C(C)(C)C)C(=O)[C@@H]3CC[C@H]12	-0.0123
CC[C@@H](c1ccccc1)n1c(=O)n2n(c1=O)[C@H]1[C@H](O)[C@@H]3O[C@@H]3C(=O)[C@H]1CC2	0.13
C=C(C)C(=O)OCC1CN2[C@@H](CC[C@@H](C)[C@@H]2c2ccc(Br)cc2)C(=O)O1 (stereo partly drawn)	0.0513
COC(=O)CC=C[C@@H](C)[C@@H](C=NO[C@@H](C)c1cn([C@H](CO)Cc2ccccc2)nn1)OC	0.084
CO[C@H]1COC(=O)CC=C[C@@H](C)[C@H](NS(=O)(=O)c2ccc(C)cc2)COC(=O)CCC[C@@H]1C	-0.0807
CCO[C@H](c1cc(OC)cc([N+](=O)[O-])c1OC)[C@H](C)C=CCC(=O)OC	0.0356

----------
# assayed target: Carbonic anhydrase 2 (Homo sapiens)
# procedure summary: CAII small-molecule binders, profiling panel, biochemical, small-molecule microarray, Alexa647-labelled CAII (AID 1122)
# condition notes: CAII-A647 binding fluorescence, higher = more signal
Listing of recorded composite z-score by entry.
outcome measure: composite z-score

C=CC[C@@H]1C=C[C@H](ON=C(C)CCC(=O)OC[C@H]2O[C@H](c3ccccc3)C=C[C@@H]2Oc2ccc(OC)cc2)[C@@H](CO)O1	-0.273
Cc1ccc(S(=O)(=O)OC[C@H]2CN3[C@H](c4ccc(Br)cc4)[C@@H](C)CC[C@H]3C(=O)O2)cc1	0.366
COc1ccc(O[C@H]2C=C[C@@H](c3ccccc3)O[C@@H]2COC(=O)CCC(C)=NO[C@@H]2O[C@H](COC(C)=O)[C@@H](OC(C)=O)[C@H](OC(C)=O)[C@H]2OC(C)=O)cc1	-0.0481
CC(C)CON=C1[C@H]2CCn3c(=O)n(Cc4cc5c(cc4Cl)OCO5)c(=O)n3[C@H]2[C@H](O)[C@@H]2O[C@H]12	0.0904
O=C(NN=C1C[C@@H](O)[C@@H](O)[C@@H]2[C@@H]3C(=O)N(C4CCCCC4)C(=O)[C@@H]3CC[C@@H]12)OCc1ccccc1	-0.129
CC(C)=CCCC(C)=CCON=C1C[C@@H](O)[C@@H](O)[C@@H]2[C@@H]3C(=O)N(Cc4ccccc4)C(=O)[C@@H]3CC[C@H]12	0.754
COC(=O)CC=C[C@@H](C)[C@@H](C=NO[C@@H](C)c1cc(-c2c(C)cc(C)cc2C)no1)NS(=O)(=O)c1ccc(C)cc1	-0.6
Cc1ccc(S(=O)(=O)N[C@H]2COC(=O)CC=C[C@@H](C)COC(=O)CC=C[C@@H]2C)cc1	-0.41
